For each record, write down the corresponding cytotoxicity at 10 µM.
Test method notes: Toxicity liver stage against HepG2, at 10uM
Assay type: cell-based
Design: test concentration 10 uM, cell line HepG2-A16-CD81EGFP
Details: human, HepG2-A16-CD81EGFP cells; read-out: INHIBITION
Answers are plain numbers, in %.

Some solved cases for reference:
>>> data_value("COc1cc(-c2nc(N)n[nH]2)cc(OC)c1OC")
-10.2
>>> data_value("COc1cccc(CN(C)Cc2ccccc2C#N)c1OC")
-5.92
>>> data_value("CN1CCOC[C@H]1c1nc(C(C)(C)C)c[nH]1")
5.08
>>> data_value("CC(=O)N1CCC2(CC1)CC(Oc1ccccc1)CO2 (stereo unspecified)")
-8.77
>>> data_value("Fc1cccc(C2(CNC3CCCNC3)CCOCC2)c1 (stereo unspecified)")
0.979

For each of the compounds below, state cytotoxicity at 10 µM.
1. Cc1nnc(-c2cccc(C#N)c2)n1C1CCCN(C(C)C)C1=O (stereo unspecified)
2. CCCS(=O)(=O)N1CC[C@H]2O[C@@H](c3nc(C)no3)CC[C@H]21
3. CCC1CN(Cc2cccc(C(=O)N(C)C)c2)CCN1CCOC (stereo unspecified)
4. CCc1nccn1C1CCCN(C(=O)c2cncnc2C)C1 (stereo unspecified)

**Result**
1. -6.74
2. -2.48
3. -2.99
4. -11.8

For each of the compounds below, state cytotoxicity at 10 µM.
1. O=C1NCCCCC1NC(=O)N1CCCc2cc(F)ccc21 (stereo unspecified)
2. CC(NC(=O)C1CCCC1)c1nncn1C(C)C (stereo unspecified)

**Result**
-4.53
6.89

For each of the compounds below, state cytotoxicity at 10 µM.
1. Cc1cccc(C(=O)N2CC[C@@H]3[C@H]2CCC(=O)N3c2ccccc2)n1
2. Nc1cc2c(nn1)CCN(C(=O)CCc1ccc3c(c1)OCO3)C2
3. Cc1ccccc1C1(CN)CCCCC1
4. CCC(CC)c1cc(CNC(=O)N2CCOC(C)C2)on1 (stereo unspecified)
5. Cn1cc(C(=O)Nc2ccc3c(c2)CN(C(=O)c2ccco2)CC3)nn1
6. COc1cccc2c1OCC(CNc1cc(N)nc(SC)n1)C2 (stereo unspecified)
7. c1ccc(CN2CC[C@@H]3[C@@H](CO[C@@H]3CNc3ncccn3)C2)nc1

**Result**
1. -94.8
2. 3.23
3. 2.29
4. 0.433
5. 0.0452
6. 3.37
7. -4.09

* * *

For each record, write down the corresponding cytotoxicity at 10 µM.
Test method notes: Toxicity liver stage against HepG2, at 10uM
Type: cell-based
Parameters: test concentration 10 uM, cell line HepG2-A16-CD81EGFP
Details: human, HepG2-A16-CD81EGFP cells; read-out: INHIBITION
Numbers only, in %.

Some solved cases for reference:
>>> data_value("CCCc1ccc(C(C)Nc2ncnc3c2CCNC3)cc1 (stereo not given)")
28.1
>>> data_value("O=C(NC1CC1)C(c1ccccc1)N1CCN(Cc2ccc(Cl)s2)CC1 (stereo not given)")
4.46
>>> data_value("Cc1ccc(CN2CC[C@H]3O[C@@H](C(=O)N4CCCO4)CC[C@H]32)s1")
-3.29

For each of the compounds below, state cytotoxicity at 10 µM.
1. C=c1ncsc1=C1NN=C(C2CCCN2C(=O)CCn2cccn2)O1 (stereo not given)
2. O=C([C@H]1C[C@H]2OCC[C@H]2N(Cc2cccnc2)C1)N1CCCO1

**Result**
1: 2.29; 2: -2.83

* * *

For each record, write down the corresponding cytotoxicity at 10 µM.
Test method notes: Toxicity liver stage against HepG2, at 10uM
Assay type: cell-based
Set-up: test concentration 10 uM, cell line HepG2-A16-CD81EGFP
Details: human, HepG2-A16-CD81EGFP cells; read-out: INHIBITION
Give bare numbers, in %.

Some solved cases for reference:
>>> data_value("Cc1nc(CN2CCC(C(=O)N(C)C3CCC(C)CC3)CC2)cs1 (stereo not given)")
2.84
>>> data_value("Cc1ccc2oc(SCC(N)=O)nc2n1")
9.65
>>> data_value("O=C(c1ncccn1)N1CCC[C@]2(C[C@H](OCC3CC3)CO2)C1")
-86
>>> data_value("COc1cc(CNCC(O)c2ccccc2F)cc2c1OCO2 (stereo not given)")
-5.53
>>> data_value("CCOc1cc(NC(=O)N2CCC(c3nnc[nH]3)CC2)ccc1C")
14.5
>>> data_value("CCOc1ccc(C(=O)Nc2c(C)nc3cccc(C)n3c2=O)cc1")
8.99
>>> data_value("COc1ccc2c(c1)c(-c1nc(N(C)C)ncc1CN)cn2C")
7.43
>>> data_value("CSc1ccccc1CN1CCn2nc(CNC(C)=O)cc2C1")
-17
>>> data_value("Cc1nn(C)cc1C(=O)NCc1csc(C2CC2)n1")
-4.1
>>> data_value("CC(=O)c1cccc(OCC(=O)NS(=O)(=O)c2ccc(Br)s2)c1")
-19.4

For each of the compounds below, state cytotoxicity at 10 µM.
1. COc1ccccc1CC(=O)N1CCCC(n2nc(C)cc2C)C1 (stereo not given)
2. CCS(=O)(=O)N(C)C1CCN(c2cccc(F)c2C(C)=O)CC1

**Result**
[-4.48, 9.61]

* * *

Test method notes: Toxicity liver stage against HepG2, at 10uM
Assay type: cell-based
Set-up: test concentration 10 uM, cell line HepG2-A16-CD81EGFP
Details: human, HepG2-A16-CD81EGFP cells; read-out: INHIBITION
For each record, write down the corresponding cytotoxicity at 10 µM.
Numbers only, in %.

Some solved cases for reference:
>>> data_value("O=C(c1cc(F)ccc1O)N1CCN(C(=O)C2CCC2)CC1")
1.22
>>> data_value("O=C(NCC1CC1)c1nc(COc2ccc3c(c2)OCO3)no1")
8.89
>>> data_value("NCC(=O)N1CCCC(c2cncc(Nc3ncccn3)n2)C1 (stereo not given)")
0.848
>>> data_value("Cc1ccc(N2CCC3(CCN(C(=O)c4ccnnc4)CC3)CC2)nn1")
3.94
>>> data_value("COC(=O)CN1CCN(c2nc3c(s2)c(C)nn3C)C(C)C1=O (stereo not given)")
3.27

For each of the compounds below, state cytotoxicity at 10 µM.
1. COc1ccc(-c2cc(CNc3ncnc4c3CCNCC4)no2)cc1
2. Cc1ccc(N2CCCC(N(C)Cc3nnc(C4CC4)o3)C2)nn1 (stereo not given)

**Result**
13.1
6.2

For each of the compounds below, state cytotoxicity at 10 µM.
1. O=C(C1CCC1)N1CCN(Cc2cccnc2)[C@H]2CS(=O)(=O)C[C@H]21
2. COc1ccc(CC(=O)N2CCCC(n3cccn3)C2)cc1F (stereo not given)
3. Cc1ccc(-c2cc(C(=O)NC(C)C(=O)N3CCCCC3)on2)cc1 (stereo not given)

**Result**
1: 1.02; 2: -4.62; 3: -7.17

* * *

Test method notes: Toxicity liver stage against HepG2, at 10uM
Assay type: cell-based
Design: test concentration 10 uM, cell line HepG2-A16-CD81EGFP
Details: human, HepG2-A16-CD81EGFP cells; read-out: INHIBITION
Endpoint label: cytotoxicity at 10 µM (%)
Numbers only, in %.

Some solved cases for reference:
>>> data_value("Cc1noc([C@@H]2C[C@H]3CN(Cc4cc(C)on4)C[C@H]3O2)n1")
-9.33
>>> data_value("CCCOc1ccc(C(=O)N2CC[C@@H]3CC[C@H](C2)N3)cc1Cl")
-6.94
>>> data_value("COc1cc2c(cc1CNC(=O)Cc1ccc(C)nc1)OC(C)C2 (stereo not drawn)")
-6.47
>>> data_value("Cc1ccc(CNC(=O)NCC(=O)N2CCCC2)c(N2CCCC2)c1")
5.84
>>> data_value("O=C1CC(NCc2cnc(-c3cccs3)nc2)CN1c1ccccc1 (stereo not drawn)")
1.58

For each of the compounds below, state cytotoxicity at 10 µM.
1. COc1ccc2c(c1)CC(C1CCOCC1)N(C(=O)c1ccnn1C)C2 (stereo not drawn)
2. CC(NC(=O)NCC1(c2ccc(F)cc2)CCCC1)c1nncn1C (stereo not drawn)
3. Cc1ccc(CN2CCOC3(CCCN(C(=O)c4ccco4)C3)C2)s1 (stereo not drawn)

**Result**
1: -0.516; 2: -6.27; 3: -10.3

* * *

Test method notes: Toxicity liver stage against HepG2, at 10uM
Assay type: cell-based
Parameters: test concentration 10 uM, cell line HepG2-A16-CD81EGFP
Details: human, HepG2-A16-CD81EGFP cells; read-out: INHIBITION
Endpoint label: cytotoxicity at 10 µM (%)
Numbers only, in %.

For each of the molecules below, state cytotoxicity at 10 µM.
1. CC(c1cccc(S(N)(=O)=O)c1)N(C)CCCOc1ccccc1 (stereo not given)
2. CN(C)CCNc1cc(-c2ncccc2C(F)(F)F)c2cc[nH]c2n1
3. COc1cccc(CC(=O)N2CCC(O)(C(F)(F)F)C2)c1 (stereo not given)
4. O=C1CCC2(CCCN(Cc3ccccc3F)C2)N1CC1CC1 (stereo not given)
5. Cn1cc(C(=O)N2CCN(Cc3cscn3)CC2)ccc1=O
6. CN(C)CCOCC1CN(Cc2ccncc2)Cc2nnn(C)c21 (stereo not given)
7. COc1cccc(CNc2c(C)nn(C(C)C)c2C)c1
8. Cc1nc(COCC2CN(C(=O)N(C)C)Cc3nccn3C2)cs1 (stereo not given)

**Result**
[-1.99, 7.2, 1.16, 6.06, -4.79, 3.66, -46.9, 4.48]

For each of the molecules below, state cytotoxicity at 10 µM.
1. O=C(CSc1nccc(-c2ccc3c(c2)OCO3)n1)N1CCOCC1
2. N[C@@H](C(=O)N1CCN(c2ccccc2Cl)C(=O)C1)c1ccccc1

**Result**
1. -8.3
2. -0.823
